target system: Prostaglandin E2 receptor EP3 subtype (Mus musculus)
Sequence (P30557 whole entry): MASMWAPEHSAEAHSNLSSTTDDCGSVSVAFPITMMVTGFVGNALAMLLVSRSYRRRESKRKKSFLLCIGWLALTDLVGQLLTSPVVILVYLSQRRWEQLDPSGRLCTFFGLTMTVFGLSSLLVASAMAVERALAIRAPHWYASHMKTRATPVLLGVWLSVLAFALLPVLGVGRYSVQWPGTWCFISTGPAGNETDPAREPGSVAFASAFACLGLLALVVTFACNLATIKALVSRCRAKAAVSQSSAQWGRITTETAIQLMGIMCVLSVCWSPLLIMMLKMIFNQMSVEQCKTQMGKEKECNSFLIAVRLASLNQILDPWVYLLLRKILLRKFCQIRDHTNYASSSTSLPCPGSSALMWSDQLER
experimental protocol: Antagonist activity at mouse EP3 receptor expressed in CHO cells assessed as inhibition of PGE2-induced increase in intracellular calcium level after 1 hr by FDSS in presence of 1% bovine serum albumin
pIC50: −log10 of the molar value.
measurement kind: pIC50

As a guide, the following entries are already answered.
| mol smiles | target system | pIC50 |
| --- | --- | --- |
| CN(CCOc1cc(Cn2cccn2)ccc1CCC(=O)NS(=O)(=O)c1ccc(F)c(F)c1)c1ccccc1 | Prostaglandin E2 receptor EP3 subtype (Mus musculus) | 8.42 |
| O=C(CCc1ccc(Cn2cccn2)cc1OCCc1ccc2ccccc2c1)NS(=O)(=O)c1cccnc1 | Prostaglandin E2 receptor EP3 subtype (Mus musculus) | 6.82 |

[1] O=C(CCc1ccc(Cn2cccn2)cc1OCCc1ccc2ccccc2c1)NS(=O)(=O)c1ccccn1
[2] O=C(CCc1ccc(Cn2cccn2)cc1OCCc1ccc2ccccc2c1)NS(=O)(=O)c1ccc(F)c(Cl)c1
Parameter check: reported pIC50 is higher for which label, 1 or 2 ? Write down the label attached to your selection.
2

====

The following compounds each carry a recorded Ki for UniProt:P32240.
Sequence (P32240 whole entry): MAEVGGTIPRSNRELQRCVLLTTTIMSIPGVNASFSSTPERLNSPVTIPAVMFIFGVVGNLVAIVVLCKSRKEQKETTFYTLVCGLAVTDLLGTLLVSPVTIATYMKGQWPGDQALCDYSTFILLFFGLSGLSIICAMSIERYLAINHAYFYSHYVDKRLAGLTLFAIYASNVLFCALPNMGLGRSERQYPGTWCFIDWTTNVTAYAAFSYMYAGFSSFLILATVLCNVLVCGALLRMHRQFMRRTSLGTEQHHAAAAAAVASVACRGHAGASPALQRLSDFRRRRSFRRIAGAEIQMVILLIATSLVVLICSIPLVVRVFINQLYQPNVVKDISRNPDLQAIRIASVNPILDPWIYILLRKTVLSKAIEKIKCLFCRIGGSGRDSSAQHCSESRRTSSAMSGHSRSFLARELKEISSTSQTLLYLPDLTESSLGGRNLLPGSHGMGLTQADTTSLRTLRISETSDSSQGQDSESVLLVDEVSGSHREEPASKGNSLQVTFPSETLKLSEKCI
measurement kind: Ki (µM)

| mol smiles | unit of measure | Ki |
| --- | --- | --- |
| O=C(CCc1ccc(Cn2cccn2)cc1OCCc1ccccc1)NS(=O)(=O)c1ccc(F)c(F)c1 | µM | 2.5 |
| N#Cc1cccc(OCc2ccc(CCC(=O)NS(=O)(=O)c3ccc(F)c(F)c3)c(OCCc3ccc4ccccc4c3)c2)c1 | µM | 2.3 |

[A] O=C(CCc1ccc(COc2cccnc2)cc1OCCc1ccc2ccccc2c1)NS(=O)(=O)c1ccc(F)c(F)c1
[B] O=C(CCc1ccc(Cn2cccn2)cc1OCCc1ccc2ccccc2c1)NS(=O)(=O)c1ccc(F)c(F)c1
// task: argmin of Ki over [ A , B ] Write down the label attached to your selection.
A
(A: 0.71 µM, B: 2.4 µM)

====

target system: Prostaglandin E2 receptor EP3 subtype (Mus musculus)
experimental protocol: Antagonist activity at mouse EP3 receptor expressed in CHO cells assessed as inhibition of PGE2-induced increase in intracellular calcium level after 1 hr by FDSS in presence of 1% bovine serum albumin
Format: functional, cell-based
pIC50: −log10 of the molar value.
measurement kind: pIC50

As a guide, the following entries are already answered.
| mol smiles | readout number |
| --- | --- |
| O=C(CCc1ccc(Cn2cccn2)cc1OCCc1ccc2ccccc2c1)NS(=O)(=O)c1ccc(F)c(F)c1 | 8.92 |
| O=C(CCc1ccc(COc2cccnc2)cc1OCCc1ccc2ccccc2c1)NS(=O)(=O)c1ccc(F)c(F)c1 | 9.40 |

[a] O=C(CCc1ccc(Cn2cccn2)cc1OCCc1ccccc1)NS(=O)(=O)c1ccc(F)c(F)c1
[b] Cc1ccc(S(=O)(=O)NC(=O)CCc2ccc(Cn3cccn3)cc2OCCc2ccc3ccccc3c2)cc1Cl
[c] N#Cc1cccc(S(=O)(=O)NC(=O)CCc2ccc(Cn3cccn3)cc2OCCc2ccc3ccccc3c2)c1
[d] O=C(NCc1ccc(Cn2cccn2)cc1OCCc1ccc2ccccc2c1)NS(=O)(=O)c1ccccc1
Task for the reader: rank each entry by its pIC50, from the minimum upward. // ordering of labels required in reply
d, a, c, b
